Answer each item with its documented Her2 level.
test system: Receptor tyrosine-protein kinase erbB-2 (Homo sapiens) (UniProt P04626)
Sequence (P04626 whole entry, looked up): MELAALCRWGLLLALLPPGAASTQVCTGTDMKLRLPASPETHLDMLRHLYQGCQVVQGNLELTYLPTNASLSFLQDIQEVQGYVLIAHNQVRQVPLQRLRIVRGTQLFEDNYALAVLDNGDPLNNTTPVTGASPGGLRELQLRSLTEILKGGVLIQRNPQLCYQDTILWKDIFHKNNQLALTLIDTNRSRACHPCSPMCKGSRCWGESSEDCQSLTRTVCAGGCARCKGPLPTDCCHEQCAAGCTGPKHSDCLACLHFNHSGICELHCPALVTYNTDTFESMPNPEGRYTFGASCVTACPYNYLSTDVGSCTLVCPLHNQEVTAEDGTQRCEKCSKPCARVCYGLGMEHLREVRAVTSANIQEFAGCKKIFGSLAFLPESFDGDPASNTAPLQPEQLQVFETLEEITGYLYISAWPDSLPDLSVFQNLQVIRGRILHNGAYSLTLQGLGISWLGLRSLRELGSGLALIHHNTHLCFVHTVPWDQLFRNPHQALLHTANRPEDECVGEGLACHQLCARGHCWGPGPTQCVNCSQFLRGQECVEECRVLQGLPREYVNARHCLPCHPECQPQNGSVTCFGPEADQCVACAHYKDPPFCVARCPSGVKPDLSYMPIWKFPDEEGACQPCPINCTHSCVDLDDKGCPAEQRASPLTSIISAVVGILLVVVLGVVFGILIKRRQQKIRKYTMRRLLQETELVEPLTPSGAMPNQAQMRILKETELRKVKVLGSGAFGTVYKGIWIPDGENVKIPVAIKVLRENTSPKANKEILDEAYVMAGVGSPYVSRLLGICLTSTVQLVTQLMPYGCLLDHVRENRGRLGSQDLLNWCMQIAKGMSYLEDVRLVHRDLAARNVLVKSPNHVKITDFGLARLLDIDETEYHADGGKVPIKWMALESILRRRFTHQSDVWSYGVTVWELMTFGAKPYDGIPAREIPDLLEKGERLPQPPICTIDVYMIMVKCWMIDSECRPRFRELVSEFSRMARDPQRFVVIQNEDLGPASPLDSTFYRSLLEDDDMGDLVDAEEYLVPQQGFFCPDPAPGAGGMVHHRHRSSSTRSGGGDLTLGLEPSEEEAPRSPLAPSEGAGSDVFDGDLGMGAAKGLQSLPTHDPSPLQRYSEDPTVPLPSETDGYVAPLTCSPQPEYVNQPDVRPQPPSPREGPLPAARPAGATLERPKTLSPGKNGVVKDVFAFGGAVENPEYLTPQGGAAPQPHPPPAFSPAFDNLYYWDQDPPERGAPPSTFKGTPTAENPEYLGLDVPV
procedure summary: reducers of endogenous Her2 protein level, primary screen, SKBR3 breast tumor cells, AlphaScreen, ATP viability (AID 461);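 also: lower value means less Her2 protein in the cells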
condition details: 18-24 h, at 10 µM, active compounds read low
Answers are plain numbers, in %.

For orientation, consider the following solved cases.
> print(dat)
                                   molecule                               test.system  meas.value
1  CC(=O)c1c(C)oc2ccc(NS(=O)(=O)c3ccc(O)c(C(=O)O)c3)cc12  Receptor tyrosine-protein kinase erbB-2 (Homo sapiens) (UniProt P04626)        78.5
2                   Cn1nnnc1SCc1cn2cccnc2n1  Receptor tyrosine-protein kinase erbB-2 (Homo sapiens) (UniProt P04626)        90.5
3  COc1ccccc1NC(=O)NC1(C(=O)N2CCC(O)CC2)CCCCC1  Receptor tyrosine-protein kinase erbB-2 (Homo sapiens) (UniProt P04626)          97

Look up Her2 level for the entries below, preserving their order.
1. CCC(C)(C)NC(=O)C(c1ccco1)N(C(=O)Cn1nnc2ccccc21)c1ccc2c(c1)OCO2 (stereo not given)
2. Cn1c(C(=O)N2CCN(C(=O)c3ccco3)CC2)cc2c(=O)n3ccccc3nc21
3. CCOC(=O)N1CCC(NC(=O)CSCc2nc(-c3cccc(OC)c3)oc2C)CC1
4. CCOC(=O)N1CCN(S(=O)(=O)c2ccc(Br)s2)CC1
5. COc1ccc(OCC(=O)N2CCN(C(=O)Cc3ccccc3)CC2)cc1
6. O=C1CCC(=O)N1OCCCCOc1ccccc1
7. CCOC(=O)c1ccc(S(=O)(=O)Nc2cc(C(C)(C)C)no2)cc1
8. CCc1ccc(NS(=O)(=O)c2cccs2)cc1

[85, 104, 91, 112, 96, 93, 97, 102]

Please give Her2 level, item by item, for the list that follows.
1. O=S(=O)(c1cccc(-c2nnco2)c1)N1CCCC1
2. COc1ccccc1NC(=O)c1ccc(NC(=O)CSc2nnnn2C)cc1
3. Cc1cccc(N2CCN(C(=O)c3cc4c(=O)[nH]c5ccccc5c4n3C)CC2)c1C
4. Cc1cc(NC(=O)CSc2ccc3nnc(-c4cccc(F)c4)n3n2)no1
5. CC(=O)CCc1c(C)[nH]c2ccccc2c1=O
6. C=Cn1c(C(=O)O)cc(CC)c1-c1ccccc1
7. CCN1CCN(C(c2ccc(F)cc2)c2nnnn2Cc2cccs2)CC1 (stereo not given)

1. 116
2. 96
3. 57.5
4. 102
5. 118
6. 101
7. 105

Hi team, please reply with Her2 level for each item in this list.
1. CCOC(=O)c1c(N)sn(-c2ccccc2)c1=S
2. CC(C)(C)NCc1cc2ccccc2[nH]c1=O

[108, 74.5]

###

Kindly supply the reported viability values for the records listed here.
procedure summary: SK-BR-3 cell growth inhibitors, pilot screen, 24 h, human (AID 572);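 also: compound exposure lasted between 18 and 24 h rather than exactly 24 h; 100% = carrier-treated control wells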
condition details: SK-BR-3 viability, CellTiter-Glo luminescence, at 10 µM, active compounds read low
Numbers only, in %.

> print(dat)
                                   compound  meas.value
1  Cn1cccc1Cc1nnc(SCC(=O)Nc2ccccc2F)n1-c1ccc(F)cc1        87.5
2  Cc1nnc(SCC(=O)N2CCN(S(=O)(=O)c3ccccc3)CC2)[nH]c1=O         109
3    COc1cccc(CN(C)CC(=O)NC(=O)NCc2ccco2)c1         106
4  Cc1cccc(NC(=O)c2cc3n(n2)C(C(F)(F)F)CC(c2ccc4c(c2)OCO4)N3)c1 (stereo not drawn)         113
5     COc1ccc(C2=Nn3c(nnc3-c3cccnc3)SC2)cc1        83.5

Consider the following items and state reported viability for each.
1. CC1(C)CC(CCNC(=O)c2ccco2)CC(C)(C)N1
2. CN1CCN(c2oc(COc3ccc(-c4ccccc4)cc3)nc2C#N)CC1
3. Cc1ccc2[nH]c(=O)c(CN(CCCN3CCOCC3)C(=O)Nc3cccc(Cl)c3)cc2c1
4. CCOc1ccc(S(=O)(=O)n2nc(C)cc2C)c2ccccc12
5. COc1ccc2c(=O)c3c(=O)n(Cc4ccco4)c(C(C)C)nc3oc2c1

[106, 83.5, 75.5, 83.5, 96]

Quick one: give me viability for each item below, same order please.
1. Cc1cc(-c2ccccc2)c(C#N)c(N)n1
2. CC(O)c1n(C)c(Cl)c[n+]1C (stereo not drawn)
3. CCC(CC)C(=O)Nc1cccc(C(=O)NCc2ccco2)c1
4. COCC(=O)N(Cc1nc2ccccc2c(=O)[nH]1)Cc1cccs1
5. O=C(c1ccco1)N1CCN(S(=O)(=O)c2ccc(Oc3ccccc3)cc2)CC1

1: 114; 2: 114; 3: 94; 4: 103; 5: 82

###

procedure summary: 384-well plate pilot, post-Golgi transport modulator project, inhibition of yeast transport mutant growth (AID 636)
condition details: absorbance 615 nm, about 18 h, active compounds read high
metric: inhibition (%)
One number for each entry, in %.

# count of solved cases: 5
> print(dat)
                             compound  unit.symbol  meas.value
1     O=C(CCCc1cccs1)Nc1nc2c(s1)CCCC2            %       -9.19
2         NC(=O)CCS(=O)(=O)CCN1CCCCC1            %       -0.13
3  CC1CCN(C(=O)Cn2c(=O)oc3ccccc32)CC1            %        0.53
4        COc1ccc(OCCOC(=O)c2cccs2)cc1            %       -6.22
5        COC(=O)c1ccc(Cl)c(NC(C)=O)c1            %       -1.17

Count: 2. Required value per item: inhibition.
1. Cc1ccc(O)c(NC(=O)COc2cc(C)ccc2C)c1
2. O=C1CN(Cc2ccccc2)C(=NCc2ccco2)S1

[-1.97, -6.49]

Each of the following entries comes with a recorded value; kindly state inhibition for each.
1. Cc1nnc(SCC(=O)N2CCC(C(=O)Nc3nccs3)CC2)n1Cc1ccccc1
2. O=C(NC1CCCC1)C1CC1c1ccccc1 (stereo not drawn)
3. Cc1cccc(NC2SC(=O)N(c3ccccc3)C2=O)c1 (stereo not drawn)
4. COc1ccc(CNC(=O)CN(C(=O)c2ccc(CN3CCOCC3)o2)C2CCCC2)cc1
5. CC(NS(=O)(=O)c1ccc(F)cc1)C(c1cccs1)N1CCN(C)CC1 (stereo not drawn)
6. CCC(=O)N1Cc2ccccc2-c2ccccc2C1=O
7. CCN(CC)CCCC1(CN)OCCc2ccccc21 (stereo not drawn)

1. -3.87
2. -6.13
3. -3.25
4. -1.87
5. -3.29
6. -5.06
7. -0.39

Working through the 4 compounds below one at a time, give inhibition for each.
1. Cc1ccc(-n2c(=O)c3sccc3n(CC(=O)NCc3ccco3)c2=O)cc1
2. Cc1nc2ccc(S(=O)(=O)NCC(=O)O)cc2s1
3. O=C(c1ccc(Cl)c(Cl)c1)N1CCOCC1
4. CCOC(=O)c1c(NC(=O)OC)sc(C(=O)N(C)C)c1C

1. -5.53
2. -1.84
3. -0.66
4. -6.89

###

Answer each item with its documented viability.
procedure summary: growth inhibitors of H69AR lung tumor, primary screen, human, duplicate replicates (AID 580);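 also: 100% = mean luminescence of untreated wells and 0% = no signal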
condition details: H69AR lung tumor cells viability, ATP luminescence, 72 h; at 10 µM; active compounds read low
Numbers only, in %.

The cases that follow already have their viability on record.
> print(dat)
                                   molecule     metric  unit.symbol  meas.value
1  CCN(CCNC(=O)CS(=O)(=O)Cc1nc(-c2cccc(OC)c2)oc1C)c1ccccc1  viability            %          99
2              Cc1ncoc1C(=O)Nc1ccccc1C(N)=O  viability            %         102

Please report viability for every entry that follows.
1. COc1ccccc1NC(=O)NC1(C(=O)N2CCC(O)CC2)CCCCC1
2. COc1ccc(C2=NO[C@@H]3C(=O)N(c4cccc(C)c4C)C(=O)[C@H]23)cc1OC

1. 114
2. 91.5

Need viability for each of these molecules.
1. CCC(CO)Nc1ncnc2c1cnn2-c1ccc(Cl)cc1 (centres undefined)
2. Cc1ccc(-n2ncc3c(Nc4c(C)n(C)n(-c5ccccc5)c4=O)ncnc32)c(C)c1
3. CCOc1cc(C2C(C#N)=C(N)OC(C)=C2C(C)=O)cc(Br)c1O (centres undefined)
4. COc1ccc(CNC(=O)CN(C(=O)c2ccc(CN3CCOCC3)o2)C2CCCC2)cc1

[93.7, 92.3, 90.3, 93.1]

For every item below, please supply its viability.
1. CC(C)OCCCNC(=O)c1cc2c(s1)CS(=O)(=O)C2
2. Cc1cc2c(=O)n(Cc3ccco3)c(SCC(=O)NCc3ccco3)nc2s1
3. O=C1C2CC=C(Cl)CC2C(=O)N1c1ncn[nH]1 (centres undefined)
4. COc1cccc(-c2nnc(SCC(=O)N3CCCc4ccccc43)o2)c1

1. 94.6
2. 81.2
3. 103
4. 90.6

Could you report viability for every entry in the following list?
1. COc1ccc(NC(=O)CN2CCCCC2)cc1
2. O=C(Cn1ncc2ccccc21)N1CCN(c2cccc(C(F)(F)F)c2)CC1

1. 88.2
2. 87.1
